Values compiled from patent US20240270857A1.

- assay_system: T1, IL-36R naturally expressed on OVCAR8 cells and on normal human epidermal keratinocytes (NHK cells) (human, UniProt Q9HB29 20-575)
- T1 sequence (looked up): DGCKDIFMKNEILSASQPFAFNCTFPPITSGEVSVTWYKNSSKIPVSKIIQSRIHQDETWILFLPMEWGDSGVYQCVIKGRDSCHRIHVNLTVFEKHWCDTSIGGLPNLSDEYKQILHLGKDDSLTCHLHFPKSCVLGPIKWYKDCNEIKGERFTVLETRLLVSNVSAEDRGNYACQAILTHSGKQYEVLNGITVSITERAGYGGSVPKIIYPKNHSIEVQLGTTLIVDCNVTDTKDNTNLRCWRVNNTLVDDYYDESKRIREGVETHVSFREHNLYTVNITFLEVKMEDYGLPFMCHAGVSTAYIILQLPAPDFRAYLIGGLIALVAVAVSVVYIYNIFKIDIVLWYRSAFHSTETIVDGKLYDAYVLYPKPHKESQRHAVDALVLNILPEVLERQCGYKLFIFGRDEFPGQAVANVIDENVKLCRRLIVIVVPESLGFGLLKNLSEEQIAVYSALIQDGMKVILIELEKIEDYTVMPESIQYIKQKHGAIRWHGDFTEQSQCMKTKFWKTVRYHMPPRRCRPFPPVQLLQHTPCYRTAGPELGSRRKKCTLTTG
- test_protocol: cell-based or functional assay
Parameter IC50 (M); hIL36β; IL-8 production: see the listing below.
quantity: IC50 (M); hIL36β; IL-8 production

binder: hz84C4-2.4 (antibody, human IgG4 S228P, kappa, V domains shown, Humanized, human IgG4 / kappa) VH: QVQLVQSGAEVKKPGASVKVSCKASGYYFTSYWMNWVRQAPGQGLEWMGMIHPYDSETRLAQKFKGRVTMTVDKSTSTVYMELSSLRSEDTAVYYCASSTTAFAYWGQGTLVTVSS VL: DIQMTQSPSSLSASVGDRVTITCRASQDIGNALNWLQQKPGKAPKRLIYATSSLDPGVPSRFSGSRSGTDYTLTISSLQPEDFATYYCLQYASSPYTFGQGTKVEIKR
result: 7.24e-12

binder: hz84C4-2.3 (antibody, human IgG4 S228P, kappa, V domains shown, Humanized, human IgG4 / kappa) VH: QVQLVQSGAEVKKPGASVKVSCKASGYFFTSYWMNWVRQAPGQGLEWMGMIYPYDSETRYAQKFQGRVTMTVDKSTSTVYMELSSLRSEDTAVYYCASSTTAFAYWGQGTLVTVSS VL: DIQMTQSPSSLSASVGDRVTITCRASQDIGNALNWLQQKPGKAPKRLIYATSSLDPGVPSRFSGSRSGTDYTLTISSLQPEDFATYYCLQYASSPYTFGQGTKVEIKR
result: 3.42e-12

binder: hz84C4-1.1 (antibody, human IgG4 S228P, kappa, V domains shown, Humanized, human IgG4 / kappa) VH: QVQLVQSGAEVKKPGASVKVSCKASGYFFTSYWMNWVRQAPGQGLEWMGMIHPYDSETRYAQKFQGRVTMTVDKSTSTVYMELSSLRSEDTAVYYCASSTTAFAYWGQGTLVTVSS VL: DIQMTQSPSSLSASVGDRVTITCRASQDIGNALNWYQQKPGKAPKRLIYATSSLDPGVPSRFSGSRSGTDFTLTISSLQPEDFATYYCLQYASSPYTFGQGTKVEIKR
result: 7.61e-12
